Experiment: anti-His antibody binders, primary screen, artefact control for SMM control protein annotation, biochemical, small-molecule microarray, 635 nm fluorescence (AID 1128);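 further: score merges feature fluorescence with signal-to-noise for each printed compound spot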
Settings: anti-His Alexa647 antibody binding, higher = more signal
recorded.metric: composite z-score
Just the number.

In the examples that follow, each entry is paired with its recorded composite z-score.
C=CCNC(=O)[C@@H]1[C@H]2C(=O)O[C@H](c3ccccc3)[C@H](c3ccccc3)N2[C@H](c2ccc(O)cc2)[C@@]12C(=O)N(C(=O)OCCOC)c1ccc(C#CC3(O)CCCCCC3)cc12
-0.461
C=CCN1C(=O)[C@@]2(CCS(=O)(=O)c3ccccc3)N=C(c3ccc(OCCCO)cc3)O[C@H]2c2ccccc21
1.34

Now consider the entry below.
Recorded result, O=C1O[C@@H](c2ccccc2)[C@@H](c2ccccc2)N2[C@@H](c3ccc(O)cc3)[C@]3(C(=O)Nc4ccc(C#CC5=CCCCC5)cc43)[C@@H](C(=O)NC[C@H](O)c3ccccc3)[C@H]12 , composite z-score: 0.219
